# Test system: Mus musculus
# experimentalProtocol: Reduction of amyloid beta40 level in TgCRND8 mouse plasma at 30 mg/kg, sc after 3 hrs
# Format: functional
# Parameters: scale not given: the % may be the effect or the level left
# conditionNotes: route subcutaneous
Items are presented alongside their recorded Activity.
valueType: Activity (%)

| smilesStr | endpointResult |
| --- | --- |
| O=C(OC1([C@H]2COC[C@@H](C3CC3)N2S(=O)(=O)c2ccc(Cl)cc2)CC1)N1CC2CCC(C1)N2CCO | -93 |
| O=C(OC1([C@H]2COC[C@@H](c3cc(F)cc(F)c3)N2S(=O)(=O)c2ccc(Cl)cc2)CC1)N1CC[C@H](O)C1 | 21 |
| CN1C2CCC1CN(C(=O)OC1([C@H]3COC[C@@H](C4CC4)N3S(=O)(=O)c3ccc(Cl)cc3)CC1)C2 | -88 |
| CC(C)(CO)N1CCN(C(=O)OC2([C@H]3COC[C@@H](c4cc(F)cc(F)c4)N3S(=O)(=O)c3ccc(Cl)cc3)CC2)CC1 | -68 |
| C[C@@H]1CN(C(=O)OC2([C@H]3COC[C@@H](c4cc(F)cc(F)c4)N3S(=O)(=O)c3ccc(Cl)cc3)CC2)CCN1CCO | -87 |
| CC(C)(CO)N1CCN(C(=O)OC2([C@H]3COC[C@@H](C4CC4)N3S(=O)(=O)c3ccc(Cl)cc3)CC2)CC1 | -78 |
| O=C(OC1([C@H]2COC[C@@H](C3CC3)N2S(=O)(=O)c2ccc(Cl)cc2)CC1)N1CC2CCC(C1)N2 | -90 |

* * *

# experimentalProtocol: Inhibition of gamma-secretase assessed as reduction in membrane amyloid beta40 production
pIC50: −log10 of the molar value.

| smilesStr | pIC50 |
| --- | --- |
| O=C(OC1([C@H]2COC[C@@H](C3CC3)N2S(=O)(=O)c2ccc(Cl)cc2)CC1)N1C2CCC1CNC2 | 7.77 |
| CN1CC2CCC(C1)N2C(=O)OC1([C@H]2COC[C@@H](C3CC3)N2S(=O)(=O)c2ccc(Cl)cc2)CC1 | 8.62 |
| O=C(OC[C@H]1CCC[C@@H](c2cc(F)cc(F)c2)N1S(=O)(=O)c1ccc(Cl)cc1)N1CCN(CCO)CC1 | 7.39 |
| O=C(OC1([C@H]2COC[C@@H](c3cc(F)cc(F)c3)N2S(=O)(=O)c2ccc(Cl)cc2)CC1)N1CC[C@H](O)C1 | 7.92 |
| CC(=O)N1C2CCC1CN(C(=O)OC1([C@H]3COC[C@@H](C4CC4)N3S(=O)(=O)c3ccc(Cl)cc3)CC1)C2 | 7.82 |
| C[C@@H]1CN(C(=O)OC2([C@H]3COC[C@@H](c4cc(F)cc(F)c4)N3S(=O)(=O)c3ccc(Cl)cc3)CC2)CCN1CCO | 8.26 |
| CS(=O)(=O)N1C2CCC1CN(C(=O)OC1([C@H]3COC[C@@H](C4CC4)N3S(=O)(=O)c3ccc(Cl)cc3)CC1)C2 | 7.39 |
| O=C(OC1([C@H]2COC[C@@H](C3CC3)N2S(=O)(=O)c2ccc(Cl)cc2)CC1)N1CC2CCC(C1)N2 | 8.15 |
| CC(=O)N1C2CCC1CN(C(=O)OC1([C@H]3COC(C)(C)[C@@H](C4CC4)N3S(=O)(=O)c3ccc(Cl)cc3)CC1)C2 | 8.34 |
| CN1C2CCC1CN(C(=O)OC1([C@H]3COC[C@@H](C4CC4)N3S(=O)(=O)c3ccc(Cl)cc3)CC1)C2 | 8.34 |
| CC1(C)OC[C@H](C2(OC(=O)N3CC4CCC(C3)N4CCO)CC2)N(S(=O)(=O)c2ccc(Cl)cc2)[C@@H]1C1CC1 | 8.96 |
| O=C(OC[C@H]1COC[C@@H](c2cc(F)cc(F)c2)N1S(=O)(=O)c1ccc(Cl)cc1)N1CCN(CCO)CC1 | 7.12 |
| CCN1C2CCC1CN(C(=O)OC1([C@H]3COC[C@@H](C4CC4)N3S(=O)(=O)c3ccc(Cl)cc3)CC1)C2 | 8.00 |
| C[C@H]1OC[C@H](C2(OC(=O)N3CC4CCC(C3)N4CCO)CC2)N(S(=O)(=O)c2ccc(Cl)cc2)[C@@H]1C1CC1 | 9.05 |
| CC(=O)N1C2CCC1CN(C(=O)OC1([C@H]3CO[C@@H](C)[C@@H](C4CC4)N3S(=O)(=O)c3ccc(Cl)cc3)CC1)C2 | 8.27 |
